subject of test: ZFP SBS#986 (synthetic)
Sequence (chain, as listed by the source): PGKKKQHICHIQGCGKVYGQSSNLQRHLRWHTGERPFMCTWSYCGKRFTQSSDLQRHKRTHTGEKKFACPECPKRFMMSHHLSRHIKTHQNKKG
experiment description: EMSA
condition set: tags: MBP fusion
metric: pKd
The scale used: pKd is minus the common logarithm of the concentration in molar units.

Asked: Sample GGTGCTGAT (dsDNA) DNA 1: GGTGCTGAT DNA 2: ATCAGCACC — what was its pKd?
Given back: 8.80
